The reported measurements were obtained from patent US10562908B2.

- TEST TARGET: Human α2δ-1 subunit of Cav2.2 calcium channel (Homo sapiens, UniProt P54289)
- Sequence (P54289 25-1103): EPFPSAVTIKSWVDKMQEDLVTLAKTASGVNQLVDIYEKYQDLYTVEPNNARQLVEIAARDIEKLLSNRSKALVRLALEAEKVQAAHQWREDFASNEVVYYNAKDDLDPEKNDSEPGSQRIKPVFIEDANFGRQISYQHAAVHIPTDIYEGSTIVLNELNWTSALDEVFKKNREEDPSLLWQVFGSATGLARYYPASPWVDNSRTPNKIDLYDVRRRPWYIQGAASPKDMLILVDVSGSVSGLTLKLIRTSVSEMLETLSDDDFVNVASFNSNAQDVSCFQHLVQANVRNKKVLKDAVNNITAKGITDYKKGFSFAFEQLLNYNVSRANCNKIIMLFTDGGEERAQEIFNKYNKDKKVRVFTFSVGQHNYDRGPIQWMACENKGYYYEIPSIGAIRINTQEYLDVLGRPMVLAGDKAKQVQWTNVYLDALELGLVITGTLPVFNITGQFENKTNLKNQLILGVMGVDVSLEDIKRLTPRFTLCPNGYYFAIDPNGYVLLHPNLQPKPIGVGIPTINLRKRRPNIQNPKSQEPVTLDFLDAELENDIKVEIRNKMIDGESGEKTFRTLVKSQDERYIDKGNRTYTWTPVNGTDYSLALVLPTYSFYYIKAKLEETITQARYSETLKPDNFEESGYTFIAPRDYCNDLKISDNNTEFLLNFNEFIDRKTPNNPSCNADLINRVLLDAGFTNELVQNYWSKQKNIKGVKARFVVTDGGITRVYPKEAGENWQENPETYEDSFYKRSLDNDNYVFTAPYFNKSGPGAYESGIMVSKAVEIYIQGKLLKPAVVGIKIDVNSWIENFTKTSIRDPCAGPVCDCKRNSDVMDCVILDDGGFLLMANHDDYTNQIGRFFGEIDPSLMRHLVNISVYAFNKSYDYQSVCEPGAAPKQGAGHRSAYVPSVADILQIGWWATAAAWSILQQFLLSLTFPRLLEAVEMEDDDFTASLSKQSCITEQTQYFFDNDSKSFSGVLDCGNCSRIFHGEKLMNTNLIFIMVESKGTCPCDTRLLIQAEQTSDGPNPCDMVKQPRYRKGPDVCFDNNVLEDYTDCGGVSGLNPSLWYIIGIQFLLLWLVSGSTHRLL
- METHOD SUMMARY: Human α2δ-1 subunit of Cav2.2 calcium channel assay ([3H]-Gabapentin)
- Assay type: binding
- EXPERIMENTAL PARAMETERS: human α2δ-1 enriched membranes, 15 nM [3H]-Gabapentin; read-out: Binding α2δ-1 (Ki)
Ki overview

// worked examples, Ki included
INSERT INTO assay_data (compound, result_value) VALUES
  ('Cc1nnc(N(C)C)c2nn(-c3ccccc3OCCC(N)c3ccccc3)c(C)c12 (centres unmarked)', '0.5 to 5 µM'),
  ('Cc1nnc(N(C)C)c2nn(-c3ccccc3OC(C)CCNCc3ccccc3)c(C)c12 (centres unmarked)', '0.5 to 5 µM'),
  ('CNCCC(Oc1ccccc1-n1nc2c(N3CC(OC)C3)nnc(C)c2c1C)c1ccccc1 (centres unmarked)', '0.5 to 5 µM');

Note to self: Ki recorded for Cc1nnc(N(C)C)c2nn(-c3ccccc3OC3CCN(Cc4ccccc4)C3)c(C)c12 (centres unmarked) was 0.5 to 5 µM

Note to self: Ki recorded for CNCCC(Oc1ccccc1-n1nc2c(N(C)C)nnc(C)c2c1C)c1ccncc1 (centres unmarked) was 0.5 to 5 µM

Note to self: Ki recorded for CNCCCOc1ccccc1-n1nc2c(N(C)Cc3ccccc3)nnc(C)c2c1C was 0.5 to 5 µM

Note to self: Ki recorded for Cc1nnc(N(C)C)c2nn(-c3ccccc3OC3CCNCC3)c(C)c12 was > 5 µM

Note to self: Ki recorded for CNCCC(Oc1ccccc1-n1nc2c(CC#N)nnc(C)c2c1C)c1ccccc1 (centres unmarked) was > 5 µM

Note to self: Ki recorded for CNCCC(Oc1ccccc1-n1nc2c(N(C)C)nnc(C)c2c1C)c1cccc(NC(C)=O)c1 (centres unmarked) was 0.5 to 5 µM

Note to self: Ki recorded for CNCCC(Oc1ccccc1-n1nc2c(NCc3ccccc3)nnc(C)c2c1C)c1ccccc1 (centres unmarked) was 0.5 to 5 µM

Note to self: Ki recorded for Cc1nnc(N(C)C)c2nn(-c3ccccc3OCC3CCN(Cc4ccccc4)CC3)c(C)c12 was > 5 µM

====

- TEST TARGET: Human α2δ-1 subunit of Cav2.2 calcium channel (Homo sapiens)
- METHOD SUMMARY: Human α2δ-1 subunit of Cav2.2 calcium channel assay ([3H]-Gabapentin)
- Format: binding
pKi: −log10 of the molar value.
pKi overview

INSERT INTO assay_data (compound, result_value) VALUES
  ('Cc1nnc(N(C)C)c2nn(-c3ccccc3OC3CCN(CCc4ccccc4)C3)c(C)c12 (centres unmarked)', '5.30 to 6.30'),
  ('CNCCC(Oc1ccccc1-n1nc2c(N(C)C)nnc(C)c2c1C)c1ccccc1 (centres unmarked)', '5.30 to 6.30'),
  ('CCNCCC(Oc1ccccc1-n1nc2c(N(C)C)nnc(C)c2c1C)c1ccccc1 (centres unmarked)', '5.30 to 6.30');

Entry CNCCC(Oc1ccccc1-n1nc2c(N(C)C)nnc(C)c2c1C)c1cccc(F)c1 (centres unmarked) ; assay system Human α2δ-1 subunit of Cav2.2 calcium channel (Homo sapiens); pKi recorded at > 6.30

Entry CNCC[C@@H](Oc1ccccc1-n1nc2c(N(C)C)nnc(C)c2c1C)c1cccc(F)c1 ; assay system Human α2δ-1 subunit of Cav2.2 calcium channel (Homo sapiens); pKi recorded at 5.30 to 6.30
